Experimental System: EGFR L858R/C797S (Homo sapiens, UniProt P00533, C797S/L858R)
Sequence (P00533 25-1210 C797S/L858R): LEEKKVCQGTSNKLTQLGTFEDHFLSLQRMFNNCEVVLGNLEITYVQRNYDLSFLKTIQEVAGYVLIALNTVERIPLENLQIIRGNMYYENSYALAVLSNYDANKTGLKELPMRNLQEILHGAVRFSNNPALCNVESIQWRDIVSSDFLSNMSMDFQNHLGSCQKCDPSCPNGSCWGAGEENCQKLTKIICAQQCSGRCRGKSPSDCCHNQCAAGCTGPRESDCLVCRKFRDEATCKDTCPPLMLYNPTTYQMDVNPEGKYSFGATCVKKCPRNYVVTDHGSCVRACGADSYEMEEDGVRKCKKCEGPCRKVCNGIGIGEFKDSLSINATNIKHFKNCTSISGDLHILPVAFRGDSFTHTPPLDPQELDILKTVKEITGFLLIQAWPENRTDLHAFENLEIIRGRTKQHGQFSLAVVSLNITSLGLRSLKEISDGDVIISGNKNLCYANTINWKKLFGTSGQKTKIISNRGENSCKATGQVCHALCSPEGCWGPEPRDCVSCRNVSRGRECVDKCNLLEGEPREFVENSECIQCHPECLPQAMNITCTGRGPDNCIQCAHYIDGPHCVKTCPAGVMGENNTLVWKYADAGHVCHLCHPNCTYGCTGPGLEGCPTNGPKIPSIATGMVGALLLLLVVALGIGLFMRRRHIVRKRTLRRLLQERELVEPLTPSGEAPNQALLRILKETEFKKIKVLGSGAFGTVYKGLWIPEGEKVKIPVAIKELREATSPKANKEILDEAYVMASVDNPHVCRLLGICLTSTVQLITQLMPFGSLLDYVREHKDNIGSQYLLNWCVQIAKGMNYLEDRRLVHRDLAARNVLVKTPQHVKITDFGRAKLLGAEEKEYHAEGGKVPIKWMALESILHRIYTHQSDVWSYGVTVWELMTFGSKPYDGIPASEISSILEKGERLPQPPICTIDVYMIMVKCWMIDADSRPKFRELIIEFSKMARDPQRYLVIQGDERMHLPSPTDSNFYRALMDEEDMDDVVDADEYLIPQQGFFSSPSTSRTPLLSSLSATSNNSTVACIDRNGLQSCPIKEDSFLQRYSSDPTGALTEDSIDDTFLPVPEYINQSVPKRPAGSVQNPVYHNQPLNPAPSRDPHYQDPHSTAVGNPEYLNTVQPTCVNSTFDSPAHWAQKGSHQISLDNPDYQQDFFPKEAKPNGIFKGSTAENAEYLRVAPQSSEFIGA
Assay Procedure: Biochemical EGFR kinase assay (Lance Ultra TR-FRET), double mutant L858R/C797S
Condition Context: IC50 L858R/C797S, 100 μM ATP
Result Type: IC50 (nM)

> print(dat)
                                    molecule   val
 1  C[C@]1(O)CC[C@@H](Nc2nccc(-c3cnc(Nc4ccnc(-c5cnn(S(=O)(=O)C6CC6)c5)n4)cc3N[C@H]3CC[C@@](C)(O)CC3)n2)CC1  26.4
 2  CC(F)(F)c1ccc(-c2cnc(Nc3ccnc(-c4cnn(S(=O)(=O)C5CC5)c4)n3)cc2N[C@H]2CC[C@@H](CO)CC2)nc1    22
 3  CN(C)S(=O)(=O)c1ccc(-c2cnc(Nc3ccnc(-c4cnn(S(=O)(=O)C5CC5)c4)n3)cc2N[C@H]2CC[C@@H](CO)CC2)nc1   2.4
 4  CC(C)(O)[C@H]1CC[C@@H](Nc2cc(Nc3ccnc(-c4cnn(S(=O)(=O)C5CC5)c4)n3)ncc2-c2cc(OCCN3CCOCC3)ccn2)CC1  85.4
 5  CN(C)CCOc1ccc(-c2cnc(Nc3ccnc(-c4cnn(S(=O)(=O)C5CC5)c4)n3)cc2N[C@H]2CC[C@@H](CO)CC2)nc1   0.6
 6  CC1(O)CCC(Nc2cc(Nc3ccnc(-c4cnn(S(=O)(=O)C5CC5)c4)n3)ncc2-c2cc(CN3CC(O)C3)ccn2)CC1 (stereo not shown)   6.8
 7  C[C@]1(O)CC[C@@H](Nc2cc(Nc3ccnc(-c4cnn(S(=O)(=O)C5CC5)c4)n3)ncc2-c2ccc(OCCO)cn2)CC1   3.5
 8  CC(C)(O)[C@H]1CC[C@@H](Nc2nccc(-c3cnc(Nc4ccnc(-c5cnn(S(=O)(=O)C6CC6)c5)n4)cc3N[C@H]3CC[C@@H](C(C)(C)O)CC3)n2)CC1   187
 9  CS(=O)(=O)c1ccc(-c2cnc(Nc3ccnc(-c4cnn(S(=O)(=O)C5CC5)c4)n3)cc2N[C@H]2CC[C@@H](CO)CC2)nc1   2.4
10  C[C@]1(O)CC[C@@H](Nc2cc(Nc3ccnc(-c4cnn(S(=O)(=O)C5CC5)c4)n3)ncc2-c2ccc(OCCN3CCC3)cn2)CC1   0.6

====

Reported log10(IC50) values for the following compounds.
Experimental System: EGFR L858R/T790M/C797S (Homo sapiens, UniProt P00533, C797S/L858R/T790M)
Sequence (P00533 25-1210 T790M/C797S/L858R): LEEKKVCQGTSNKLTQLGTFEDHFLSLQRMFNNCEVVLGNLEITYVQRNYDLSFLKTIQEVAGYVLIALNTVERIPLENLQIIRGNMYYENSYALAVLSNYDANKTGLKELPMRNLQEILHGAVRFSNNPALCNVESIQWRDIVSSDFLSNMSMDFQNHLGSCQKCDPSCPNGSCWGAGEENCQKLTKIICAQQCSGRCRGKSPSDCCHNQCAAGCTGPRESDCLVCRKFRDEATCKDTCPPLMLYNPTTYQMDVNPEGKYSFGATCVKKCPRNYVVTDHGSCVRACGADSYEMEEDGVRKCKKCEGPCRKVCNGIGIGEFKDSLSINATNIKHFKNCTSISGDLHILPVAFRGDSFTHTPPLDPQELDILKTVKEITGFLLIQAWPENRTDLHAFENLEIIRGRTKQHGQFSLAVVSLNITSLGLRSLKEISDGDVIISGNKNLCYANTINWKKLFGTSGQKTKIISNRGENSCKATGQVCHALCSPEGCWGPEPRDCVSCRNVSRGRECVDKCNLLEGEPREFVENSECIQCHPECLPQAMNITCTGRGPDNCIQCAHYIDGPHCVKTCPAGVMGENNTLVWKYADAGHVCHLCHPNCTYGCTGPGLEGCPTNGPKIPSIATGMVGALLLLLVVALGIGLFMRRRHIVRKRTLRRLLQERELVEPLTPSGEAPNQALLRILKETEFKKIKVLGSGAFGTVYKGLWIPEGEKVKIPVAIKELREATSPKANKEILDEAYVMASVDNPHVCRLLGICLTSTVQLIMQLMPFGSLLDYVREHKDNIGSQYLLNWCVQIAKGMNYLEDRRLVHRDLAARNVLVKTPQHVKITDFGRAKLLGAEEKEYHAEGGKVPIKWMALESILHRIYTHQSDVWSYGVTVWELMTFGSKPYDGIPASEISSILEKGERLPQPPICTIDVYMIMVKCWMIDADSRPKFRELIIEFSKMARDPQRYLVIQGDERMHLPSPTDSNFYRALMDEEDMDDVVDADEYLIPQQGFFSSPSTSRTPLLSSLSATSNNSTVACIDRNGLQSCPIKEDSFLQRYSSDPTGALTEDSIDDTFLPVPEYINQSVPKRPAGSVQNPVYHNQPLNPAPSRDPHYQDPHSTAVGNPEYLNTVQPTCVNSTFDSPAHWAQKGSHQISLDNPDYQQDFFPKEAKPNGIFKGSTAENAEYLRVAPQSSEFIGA
Assay Procedure: Biochemical EGFR kinase assay (Lance Ultra TR-FRET), triple mutant L858R/T790M/C797S
Condition Context: Km ATP; read-out: IC50 L858R/T790M/C797S (nM) Km ATP
Result Type: log10(IC50) (log10 of the value in nM)

> print(dat)
                                   compound                       experimental.system    val
1  C[C@]1(O)CC[C@@H](Nc2cc(Nc3ccnc(-c4cnn(S(=O)(=O)C5CC5)c4)n3)ncc2-c2cnc(OC3CCOCC3)cn2)CC1 [Example 148]  EGFR L858R/T790M/C797S (Homo sapiens, UniProt P00533, C797S/L858R/T790M)  -0.52
2  O=S(=O)(C1CC1)n1cc(-c2nccc(Nc3cc(N[C@H]4CC[C@@H](CCO)CC4)c(-c4ccc(C(F)F)cn4)cn3)n2)cn1 [Example 94]  EGFR L858R/T790M/C797S (Homo sapiens, UniProt P00533, C797S/L858R/T790M)  -0.05
3  CN(C)CCOc1cnc(-c2cnc(Nc3ccnc(-c4cnn(S(=O)(=O)C5CC5)c4)n3)cc2N[C@H]2CC[C@@H](C(C)(C)O)CC2)cn1 [Example 117]  EGFR L858R/T790M/C797S (Homo sapiens, UniProt P00533, C797S/L858R/T790M)  -1.00
4  CC(C)Nc1cc(Nc2ccnc(-c3cnn(S(=O)(=O)C4CC4)c3)n2)ncc1-c1cnc(C(C)(C)O)cn1 [Example 121]  EGFR L858R/T790M/C797S (Homo sapiens, UniProt P00533, C797S/L858R/T790M)  -0.70
5  CC(C)(O)[C@H]1CC[C@@H](Nc2cc(Nc3ccnc(-c4cnn(S(=O)(=O)C5CC5)c4)n3)ncc2-c2cc(CN3CCC(F)(F)CC3)ccn2)CC1 [Example 114]  EGFR L858R/T790M/C797S (Homo sapiens, UniProt P00533, C797S/L858R/T790M)   0.45
6  CN1CCC(Oc2cnc(-c3cnc(Nc4ccnc(-c5cnn(S(=O)(=O)C6CC6)c5)n4)cc3N[C@H]3CC[C@@H](C(C)(C)O)CC3)cn2)CC1 [Example 147]  EGFR L858R/T790M/C797S (Homo sapiens, UniProt P00533, C797S/L858R/T790M)  -1.00
